tested on: OVCAR-3 ovarian; assay: NCI tumour cell line growth inhibition, 48 h
measured.parameter: TGI

compound | TGI
Cc1cc(C23OC4COC(C)(C)OC4C2OC(C)(C)O3)nc2ccccc12 (configuration not stated) | > 100 µM
O=C(NNc1cn[nH]c(=O)n1)c1cccc2nc3ccccc3nc12 | > 100 µM
CCCCc1[nH]ccc2c(C)c3nc4ccccc4c3cc12 | 10.8 µM
CC(C)Sc1nncc(/C(N)=N/O)n1 | > 100 µM
CCCCCC(=O)OCCOCCOCCOCCOCCOCc1ccccc1 | > 100 µM

Ask | Hello, I am looking for reported TGI with OVCAR-3 ovarian for COc1ccc(-n2sc3ncc(C)cc3c2=O)cc1 . Could you help?
Reply | 32.4 µM

Ask | Hello, I am looking for reported TGI with OVCAR-3 ovarian for COc1ccccc1NCc1nnc(CCCCCCCCc2nnc(CNc3ccccc3OC)o2)o1 . Could you help?
Reply | > 100 µM

Ask | Hello, I am looking for reported TGI with OVCAR-3 ovarian for O=C(O)c1ccc(C=C2Sc3ccccc3S2)cc1 . Could you help?
Reply | 83 µM

---

tested on: SR leukemia; test: NCI tumour cell line growth inhibition, 48 h
Here the recorded TGI is given for each entry.

compound | measured.parameter | measured.value
CCc1cccc(CC)c1NC(=O)C(=O)Cc1nc2ccccc2o1 | TGI | > 100 µM
CC1c2ccccc2Cn2cc3c(c21)C(=O)c1cccc(OP(=O)(O)OCc2ccccc2)c1C3=O (stereo not drawn) | TGI | > 100 µM

Below: the item to evaluate.
Ask | Any idea what its TGI is? The compound is CC(=O)Oc1cc2oc(=O)cc(C)c2cc1OC(C)=O
Reply | > 100 µM

---

test system: RPMI-8226 leukemia; test: NCI tumour cell line growth inhibition, 48 h
measured.parameter: TGI

Worked cases, TGI given:
compound | assayed.target | TGI
CC(=O)c1ccc(NC(=O)/C(CC(=O)/C=C/c2ccccc2)=N/NC(N)=S)cc1 | RPMI-8226 leukemia | > 100 µM
CC(=O)O[C@H]1C(=O)[C@@]2(C)[C@H]([C@H](OC(=O)c3ccccc3)[C@]3(O)C[C@H](OC(=O)[C@H](OC(=O)OC[C@@H]4COC(C)(C)O4)[C@@H](NC(=O)c4ccccc4)c4ccccc4)C(C)=C1C3(C)C)[C@]1(OC(C)=O)CO[C@@H]1C[C@@H]2O | RPMI-8226 leukemia | > 33.3 µM
Nc1nonc1-c1nc2cnccc2n1C1CCCCC1 | RPMI-8226 leukemia | > 25 µM
C=C(CN1CCc2ccccc2C1)c1ccc(CCC(=O)Nc2ccccc2N)cc1 | RPMI-8226 leukemia | > 100 µM
COCP1(=S)OC(C)CCN1C(C)C (centres undefined) | RPMI-8226 leukemia | > 100 µM

Ask | Any idea what its TGI is? The compound is Cc1cc(C)nc(NS(=O)(=O)c2ccc(NNc3c4ccccc4nc4c(C(=O)Nc5ccc(S(=O)(=O)N=C(N)N)cc5)cccc34)cc2)n1
Reply | > 100 µM

Ask | Any idea what its TGI is? The compound is COc1ccc(C(=O)Cc2ccc(Cl)cc2)cc1OC
Reply | > 100 µM

Ask | Any idea what its TGI is? The compound is c1ccc(N2CCN(CN3CCN(c4ccccc4)C3)C2)cc1
Reply | > 100 µM

Ask | Any idea what its TGI is? The compound is Cc1nc2nn[nH]n2c(=O)c1CCO
Reply | > 100 µM

Sourced from PubChem BioAssay (NCI)
